Biological target: 2-amino-4-hydroxy-6-hydroxymethyldihydropteridin e pyrophosphokinase (Staphylococcus aureus)
Sequence (X5EH84 whole entry): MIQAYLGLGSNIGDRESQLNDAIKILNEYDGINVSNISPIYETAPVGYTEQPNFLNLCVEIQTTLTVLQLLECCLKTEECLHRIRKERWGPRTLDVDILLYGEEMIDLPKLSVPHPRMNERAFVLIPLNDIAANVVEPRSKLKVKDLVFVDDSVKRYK
readout kind: pKd
Interpret pKd as the negative base-10 log of the concentration measured in mol/L.

// pKd value for Cc1cc(CSc2nc3c(=O)[nH]c(N)nc3[nH]2)ccc1F : 5.44

// pKd value for Nc1nc2[nH]c(SCc3ccc(C(F)(F)F)cc3)nc2c(=O)[nH]1 : 5.71

// pKd value for Cc1ccc(C)c(CSc2nc3c(=O)[nH]c(N)nc3[nH]2)c1 : 5.77

// pKd value for Cc1cccc(CSc2nc3c(=O)[nH]c(N)nc3[nH]2)c1 : 6.42

// pKd value for N#Cc1cc(F)ccc1CSc1nc2c(=O)[nH]c(N)nc2[nH]1 : 5.92

// pKd value for Nc1nc2[nH]c(SCc3ccc(F)cc3)nc2c(=O)[nH]1 : 6.52

// pKd value for Nc1nc2[nH]c(SCCCO)nc2c(=O)[nH]1 : 5.34

// pKd value for N#Cc1ccccc1CSc1nc2c(=O)[nH]c(N)nc2[nH]1 : 6.29

// pKd value for Nc1nc2[nH]c(SCC(O)C(F)(F)F)nc2c(=O)[nH]1 (stereo unspecified) : 5.44

// pKd value for N#Cc1ccc(CSc2nc3c(=O)[nH]c(N)nc3[nH]2)c(F)c1 : 6.23

// pKd value for Nc1nc2[nH]c(SCC(=O)c3ccc(Br)cc3)nc2c(=O)[nH]1 : 6.24
